target: human Nav1.7 (Homo sapiens); test: PatchXpress automated patch-clamp, inactivated state block of Nav1.7; conditions: channels stably expressed in HEK 293 cells, 22° C., read-out: potency for the Nav 1.7 sodium ion channel (as measured by PatchXpress)
pIC50: −log10 of the molar value.
experimental-readout: pIC50

N#Cc1cc(S(=O)(=O)Nc2nccs2)c(F)cc1NCC12CCCN1CCC2 [Ex1-10] = 6.66
CCc1cc(S(=O)(=O)Nc2nccs2)c(F)cc1NCC12CCCN1CC(C)(C)C2 (single isomer, unassigned) [Ex18-9-B] = 7.80
O=S(=O)(Nc1nccs1)c1ccc(NCC23CCCN2CCC3)c(Cl)c1 [Ex1-14] = 7.32
CC1(C)CN2CCCC2(CNc2cc(F)c(S(=O)(=O)Nc3ncc(Cl)s3)cc2Cl)C1 (single isomer, unassigned) [Ex8-19-A] = 7.85

a = N#Cc1cc(S(=O)(=O)Nc2ncns2)ccc1NCC12CCCN1CCC2 [Ex1-6]
b = O=S(=O)(Nc1nccs1)c1ccc(NCC23CCCN2CCC3)c(C(F)(F)F)c1 [Ex1-20]
c = N#Cc1cc(S(=O)(=O)Nc2nccs2)ccc1NCC12CCCN1CCC2 [Ex2-2]
d = CC1(C)CN2CCCC2(CNc2cc(F)c(S(=O)(=O)Nc3ncc(Cl)s3)cc2Cl)C1 (single isomer, unassigned) [Ex8-19-B]
Order by pIC50, ascending. Please reply with the labels ordered as requested. Many thanks.
d, a, c, b
(d: 6.87, a: 7.07, c: 7.40, b: 7.85)

* * *

molecular target: human Nav1.5 (Homo sapiens, UniProt Q14524); construct: expressed in transfected cells; test: PatchXpress automated patch-clamp, inactivated state block of Nav1.5 (selectivity); format: cell-based; conditions: determined by PatchXpress measurement, HEK 293 cells
Sequence (Q14524 whole entry): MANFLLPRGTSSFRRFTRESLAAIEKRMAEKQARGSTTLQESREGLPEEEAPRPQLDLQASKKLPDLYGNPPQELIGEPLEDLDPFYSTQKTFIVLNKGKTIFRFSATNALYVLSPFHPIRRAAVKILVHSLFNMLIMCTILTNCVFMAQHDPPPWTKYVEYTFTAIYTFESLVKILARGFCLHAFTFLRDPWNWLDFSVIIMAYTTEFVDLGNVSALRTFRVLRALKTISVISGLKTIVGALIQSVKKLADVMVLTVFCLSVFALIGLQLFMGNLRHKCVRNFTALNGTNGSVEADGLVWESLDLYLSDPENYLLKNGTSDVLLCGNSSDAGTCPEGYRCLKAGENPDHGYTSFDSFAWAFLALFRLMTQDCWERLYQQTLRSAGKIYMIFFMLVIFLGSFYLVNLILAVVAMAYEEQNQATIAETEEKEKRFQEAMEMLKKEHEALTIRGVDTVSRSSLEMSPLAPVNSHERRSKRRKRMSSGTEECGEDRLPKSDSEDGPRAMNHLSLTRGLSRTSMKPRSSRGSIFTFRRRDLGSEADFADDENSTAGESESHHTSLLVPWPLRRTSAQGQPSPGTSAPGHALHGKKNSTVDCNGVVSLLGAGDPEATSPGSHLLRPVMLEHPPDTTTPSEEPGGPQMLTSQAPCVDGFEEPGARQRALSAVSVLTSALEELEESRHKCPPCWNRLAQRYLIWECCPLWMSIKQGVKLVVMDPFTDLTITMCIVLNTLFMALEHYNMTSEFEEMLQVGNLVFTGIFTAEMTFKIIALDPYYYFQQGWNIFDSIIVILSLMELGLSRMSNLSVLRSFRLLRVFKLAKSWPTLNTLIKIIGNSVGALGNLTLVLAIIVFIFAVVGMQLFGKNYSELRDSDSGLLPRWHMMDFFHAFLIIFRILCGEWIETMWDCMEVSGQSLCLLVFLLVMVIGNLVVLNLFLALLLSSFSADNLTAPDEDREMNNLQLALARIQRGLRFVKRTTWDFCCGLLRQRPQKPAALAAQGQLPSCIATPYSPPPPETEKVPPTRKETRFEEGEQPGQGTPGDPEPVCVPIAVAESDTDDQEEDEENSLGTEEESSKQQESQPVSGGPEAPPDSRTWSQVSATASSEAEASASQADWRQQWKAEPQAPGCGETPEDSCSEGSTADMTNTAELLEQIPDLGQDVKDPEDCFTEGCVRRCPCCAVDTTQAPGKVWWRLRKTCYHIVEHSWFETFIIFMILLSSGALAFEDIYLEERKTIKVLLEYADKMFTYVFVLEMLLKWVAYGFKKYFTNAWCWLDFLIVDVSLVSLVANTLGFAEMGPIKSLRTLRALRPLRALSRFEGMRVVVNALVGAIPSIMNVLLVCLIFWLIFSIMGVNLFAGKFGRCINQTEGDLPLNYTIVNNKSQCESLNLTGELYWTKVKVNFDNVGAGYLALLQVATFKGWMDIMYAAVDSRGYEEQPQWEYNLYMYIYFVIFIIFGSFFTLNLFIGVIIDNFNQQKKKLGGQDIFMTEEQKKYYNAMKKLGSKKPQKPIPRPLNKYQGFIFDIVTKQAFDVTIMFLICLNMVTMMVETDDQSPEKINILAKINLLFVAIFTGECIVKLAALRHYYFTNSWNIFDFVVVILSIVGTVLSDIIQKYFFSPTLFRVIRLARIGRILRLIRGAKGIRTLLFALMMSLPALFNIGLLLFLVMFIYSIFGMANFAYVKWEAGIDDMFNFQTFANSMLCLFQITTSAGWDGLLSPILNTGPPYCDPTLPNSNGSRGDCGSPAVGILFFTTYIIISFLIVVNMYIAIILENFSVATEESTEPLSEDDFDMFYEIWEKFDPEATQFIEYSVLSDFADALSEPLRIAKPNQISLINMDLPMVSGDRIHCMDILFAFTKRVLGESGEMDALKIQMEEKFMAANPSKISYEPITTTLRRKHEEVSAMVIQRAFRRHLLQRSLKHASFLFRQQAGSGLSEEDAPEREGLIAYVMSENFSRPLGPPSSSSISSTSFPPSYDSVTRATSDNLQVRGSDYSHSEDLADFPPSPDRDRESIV
experimental-readout: ratio of Nav1.7 potency:Nav 1.5 potency
# output: bare number, no unit

O=S(=O)(Nc1ncc(F)s1)c1ccc(NCC23CCCN2CC(F)C3)c(C(F)(F)F)c1 (single isomer, unassigned) [Ex9-12-B] = 300

What value of ratio of Nav1.7 potency:Nav 1.5 potency has been reported for the following compound? O=S(=O)(Nc1ccc(F)cn1)c1cc(Cl)c(NCC23CCCN2CCC3)cc1F
94

What value of ratio of Nav1.7 potency:Nav 1.5 potency has been reported for the following compound? O=S(=O)(Nc1ncc(F)s1)c1ccc(NCC23CCCN2CC(F)C3)c(Cl)c1 (single isomer, unassigned) [Ex9-14-A]
208

What value of ratio of Nav1.7 potency:Nav 1.5 potency has been reported for the following compound? O=S(=O)(Nc1nccs1)c1cc(Cl)c(NC[C@@]23CCCN2CC2(C3)OCCO2)cc1F (single isomer, unassigned)
935

What value of ratio of Nav1.7 potency:Nav 1.5 potency has been reported for the following compound? O=S(=O)(Nc1nccs1)c1cc(Cl)c(NC[C@@]23CCCN2CC2(CC2)C3)cc1F (single isomer, unassigned)
113

* * *

target: human Nav1.5 (Homo sapiens, UniProt Q14524); construct: expressed in transfected cells; assay: PatchXpress automated patch-clamp, inactivated state block of Nav1.5 (selectivity); type: cell-based; settings: determined by PatchXpress measurement, HEK 293 cells
Listed below: ratio of Nav1.7 potency:Nav 1.5 potency values for each entry.
# output: bare number, no unit

CCc1cc(S(=O)(=O)Nc2nccs2)c(F)cc1NCC12CCCN1CCC2 = 672
O=S(=O)(Nc1nccs1)c1cc(Br)c(NCC23CCCN2CCC3)cc1F = 670
CC1(C)CN2CCCC2(CNc2cc(F)c(S(=O)(=O)Nc3ncc(F)s3)cc2Cl)C1 (single isomer, unassigned) [Ex8-21-B] = 1290
C[C@@H]1CC[C@@]2(CNc3cc(F)c(S(=O)(=O)Nc4nccs4)cc3Cl)CCCN12 (single isomer, unassigned) = 2533
CCOC(=O)c1cnc(NS(=O)(=O)c2cc(Cl)c(NCC34CCCN3CCC4)cc2F)s1 = 484
O=S(=O)(Nc1ncc(F)s1)c1ccc(NCC23CCCN2CC2(CC2)C3)c(C(F)(F)F)c1 (single isomer, unassigned) [Ex13-12-B] = 3240

Now for another entry.
Query for human Nav1.5 (Homo sapiens, UniProt Q14524): what ratio of Nav1.7 potency:Nav 1.5 potency does the record show for O=S(=O)(Nc1ncc(F)s1)c1cc(Cl)c(NCC23CCCN2CC(F)C3)cc1F (single isomer, unassigned) [Ex9-10-A] ?
137

* * *

molecular target: human Nav1.7 (Homo sapiens, UniProt Q15858); assay: PatchXpress automated patch-clamp, inactivated state block of Nav1.7; details: channels stably expressed in HEK 293 cells, 22° C., read-out: potency for the Nav 1.7 sodium ion channel (as measured by PatchXpress)
Sequence (Q15858 whole entry): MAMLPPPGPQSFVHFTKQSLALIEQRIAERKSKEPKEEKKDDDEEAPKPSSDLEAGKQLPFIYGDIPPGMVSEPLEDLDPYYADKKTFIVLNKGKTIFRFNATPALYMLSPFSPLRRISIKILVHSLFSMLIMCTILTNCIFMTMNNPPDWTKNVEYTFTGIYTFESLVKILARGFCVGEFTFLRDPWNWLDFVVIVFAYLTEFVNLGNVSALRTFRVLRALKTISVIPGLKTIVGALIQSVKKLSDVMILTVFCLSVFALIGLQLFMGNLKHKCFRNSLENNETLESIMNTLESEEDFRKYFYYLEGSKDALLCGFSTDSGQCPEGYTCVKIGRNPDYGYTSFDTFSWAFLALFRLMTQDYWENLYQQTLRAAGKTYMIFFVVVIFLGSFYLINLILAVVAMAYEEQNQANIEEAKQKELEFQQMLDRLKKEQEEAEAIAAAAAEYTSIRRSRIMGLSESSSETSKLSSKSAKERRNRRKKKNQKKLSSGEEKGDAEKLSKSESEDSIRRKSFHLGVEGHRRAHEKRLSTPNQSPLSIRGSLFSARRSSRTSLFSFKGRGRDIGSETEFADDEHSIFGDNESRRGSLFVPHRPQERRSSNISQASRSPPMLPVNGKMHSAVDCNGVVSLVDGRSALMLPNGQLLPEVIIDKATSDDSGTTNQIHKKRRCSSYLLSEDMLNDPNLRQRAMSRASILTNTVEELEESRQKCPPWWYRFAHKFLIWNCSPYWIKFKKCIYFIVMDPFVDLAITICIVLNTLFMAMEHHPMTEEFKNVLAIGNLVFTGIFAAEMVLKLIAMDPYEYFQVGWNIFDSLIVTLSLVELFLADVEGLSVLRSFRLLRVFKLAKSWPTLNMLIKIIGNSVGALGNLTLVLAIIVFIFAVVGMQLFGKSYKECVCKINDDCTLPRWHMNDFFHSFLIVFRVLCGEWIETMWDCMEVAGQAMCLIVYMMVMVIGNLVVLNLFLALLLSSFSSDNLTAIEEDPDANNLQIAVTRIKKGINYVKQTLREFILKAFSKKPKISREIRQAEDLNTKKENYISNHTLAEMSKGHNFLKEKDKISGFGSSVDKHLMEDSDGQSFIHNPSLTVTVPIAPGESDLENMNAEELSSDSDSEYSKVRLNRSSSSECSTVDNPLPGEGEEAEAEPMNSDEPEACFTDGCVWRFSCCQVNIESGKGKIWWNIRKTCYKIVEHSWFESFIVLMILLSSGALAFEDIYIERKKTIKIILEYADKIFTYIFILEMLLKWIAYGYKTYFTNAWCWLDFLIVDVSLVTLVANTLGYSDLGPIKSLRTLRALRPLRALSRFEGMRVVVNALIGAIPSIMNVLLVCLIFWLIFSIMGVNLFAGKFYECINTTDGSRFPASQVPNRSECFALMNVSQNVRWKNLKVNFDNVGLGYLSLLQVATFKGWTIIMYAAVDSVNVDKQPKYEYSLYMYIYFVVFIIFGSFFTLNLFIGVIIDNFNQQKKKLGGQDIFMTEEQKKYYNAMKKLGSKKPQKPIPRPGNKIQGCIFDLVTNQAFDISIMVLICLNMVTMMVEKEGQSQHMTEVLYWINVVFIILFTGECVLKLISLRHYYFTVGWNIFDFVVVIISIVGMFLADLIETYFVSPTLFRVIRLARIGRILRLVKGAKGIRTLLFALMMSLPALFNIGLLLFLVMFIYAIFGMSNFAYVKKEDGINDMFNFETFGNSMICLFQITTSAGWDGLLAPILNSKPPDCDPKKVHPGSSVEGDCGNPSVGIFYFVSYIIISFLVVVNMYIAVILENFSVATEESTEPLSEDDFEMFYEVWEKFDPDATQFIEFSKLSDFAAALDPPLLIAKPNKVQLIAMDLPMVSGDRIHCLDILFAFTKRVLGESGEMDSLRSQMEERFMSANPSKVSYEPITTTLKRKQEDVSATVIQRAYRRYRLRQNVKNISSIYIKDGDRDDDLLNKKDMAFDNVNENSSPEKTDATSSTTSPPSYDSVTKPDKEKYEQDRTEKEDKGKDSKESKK
pIC50: −log10 of the molar value.
experimental-readout: pIC50

O=S(=O)(Nc1ncc(F)s1)c1cc(Cl)c(NCC23CCCN2CC(F)C3)cc1F (single isomer, unassigned) [Ex9-10-B] = 7.24
O=S(=O)(Nc1nccs1)c1cc(Cl)c(NC[C@]23CCCN2[C@@H](CO)CC3)cc1F (single isomer, unassigned) = 8.00

I = O=S(=O)(Nc1nccs1)c1cc(Br)c(NCC23CCCN2CCC3)cc1F
II = Cc1cc(NCC23CCCN2CCC3)c(Cl)cc1S(=O)(=O)Nc1nccs1
Which entry shows the lesser value of pIC50 here, I or II ? Answer with the label corresponding to your selection.
II

A = O=S(=O)(Nc1ncc(F)s1)c1ccc(NCC23CCCN2CC2(CC2)C3)c(C(F)(F)F)c1 (single isomer, unassigned) [Ex13-12-B]
B = COc1ccc(CC2CN3CCCC3(CNc3cc(F)c(S(=O)(=O)Nc4ncc(F)s4)cc3Cl)C2)cc1 (single isomer, unassigned) [Ex15-12-B]
Which entry shows the lesser value of pIC50 here, A or B ? Answer with the label corresponding to your selection.
B
(B: 7.18, A: 8.15)

a = O=S(=O)(Nc1nccs1)c1cc(Cl)c(NCC23CCCN2C(CF)CC3)cc1F (racemic)
b = CC1(C)CN2CCCC2(CNc2cc(F)c(S(=O)(=O)Nc3ncc(F)s3)cc2Cl)C1 (single isomer, unassigned) [Ex8-21-B]
Higher pIC50 between a and b ? Answer with the label corresponding to your selection.
b

* * *

Listed below: ratio of Nav1.7 potency:Nav 1.5 potency values for each entry.
biological target: human Nav1.5 (Homo sapiens); construct: expressed in transfected cells; assay: PatchXpress automated patch-clamp, inactivated state block of Nav1.5 (selectivity); format: cell-based; conditions: determined by PatchXpress measurement, HEK 293 cells
# output: bare number, no unit

Examples with their reported ratio of Nav1.7 potency:Nav 1.5 potency follow.
O=S(=O)(Nc1ncc(F)s1)c1cc(Cl)c(NCC23CCCN2CC(F)C3)cc1F (single isomer, unassigned) [Ex9-10-B] = 122
N#Cc1cc(S(=O)(=O)Nc2nccs2)ccc1NCC12CCCN1CCC2 = 746
O=S(=O)(Nc1nccs1)c1cc(Cl)c(NC[C@]23CCCN2CC2(C3)OCCO2)cc1F (single isomer, unassigned) = 3074
COc1ccc(C[C@@H]2CN3CCC[C@]3(CNc3cc(F)c(S(=O)(=O)Nc4nccs4)cc3Cl)C2)cc1 (single isomer, unassigned) = 308
N#Cc1cc(S(=O)(=O)Nc2nccs2)c(F)cc1NCC12CCCN1CCC2 = 94

What value of ratio of Nav1.7 potency:Nav 1.5 potency has been reported for the following compound? O=S(=O)(Nc1ncc(Cl)s1)c1cc(Cl)c(NCC23CCCN2CC2(C3)OCCO2)cc1F (single isomer, unassigned) [Ex10-9-A]
1210

What value of ratio of Nav1.7 potency:Nav 1.5 potency has been reported for the following compound? CCc1cc(S(=O)(=O)Nc2nccs2)c(F)cc1NCC12CCCN1CC(C)(C)C2 (single isomer, unassigned) [Ex18-9-A]
548

What value of ratio of Nav1.7 potency:Nav 1.5 potency has been reported for the following compound? CCc1cc(S(=O)(=O)Nc2ncc(F)s2)c(F)cc1NCC12CCCN1CCC2
2595

What value of ratio of Nav1.7 potency:Nav 1.5 potency has been reported for the following compound? CC1(C)CN2CCCC2(CNc2cc(F)c(S(=O)(=O)Nc3ncc(Cl)s3)cc2Cl)C1 (single isomer, unassigned) [Ex8-19-B]
265

What value of ratio of Nav1.7 potency:Nav 1.5 potency has been reported for the following compound? O=S(=O)(Nc1nccs1)c1cc(Cl)c(NC[C@]23CCCN2CC2(CC2)C3)cc1F (single isomer, unassigned)
406

* * *

Listed below: ratio of Nav1.7 potency:Nav 1.5 potency values for each entry.
Target: human Nav1.5 (Homo sapiens, UniProt Q14524)
Construct: expressed in transfected cells
Assay: PatchXpress automated patch-clamp, inactivated state block of Nav1.5 (selectivity)
Type: cell-based
Settings: determined by PatchXpress measurement, HEK 293 cells
Description: Compounds were tested on human Nav1.7 and Nav1.5 channels stably expressed in HEK 293 cells. Activity toward Nav 1.7 and Nav 1.5 channels was assessed using the following assay methodology. Sodium Current Measurements on the PatchXpress 7000®: […] For all electrophysiology experiments, offline analysis was used to correct for current rundown and to determine percent inhibition as a function of drug concentration. IC50 values were determined by fitting to the Hill equation.
# output: bare number, no unit

What value of ratio of Nav1.7 potency:Nav 1.5 potency has been reported for the following compound? N#Cc1cc(S(=O)(=O)Nc2nccs2)ccc1NCC12CCCN1CC(F)(F)C2 (racemic)
64
